substrate: C[C@H](NC(=O)CCC(=O)O)C(=O)N[C@@H](C)C(=O)N1CCC[C@H]1C(=O)N[C@@H](Cc1ccccc1)C(=O)Nc1ccc([N+](=O)[O-])cc1; assay: Kinetic parameters by release of p-nitroaniline from suc-AAPFpNA (absorbance at 410 nm, Michaelis-Menten fit); format: biochemical, Bacillus lentus; settings: other: 0.1M glycine pH10; pH 10.0
MEASUREMENT LABEL: Km (µM)
Your answer is read as µM, so omit the unit and give the number.

Dear colleague, please send me the reported Km for Bacillus lentus subtilisin variant N74D/S97D/S126G/P204I/T254P/S259N, SEQ ID NO: 6 (Lederbergia lenta; N74D/P204I/S126G/S259N/S97D/T254P) (protein, made in house; host or cells: protease deficient Bacillus subtilis 168) AQSVPWGISRVQAPAAHNRGLTGSGVKVAVLDTGISTHPDLNIRGGASFVPGEPSTQDGNGHGTHVAGTIAALDNSIGVLGVAPSAELYAVKVLGADGSGSVSSIAQGLEWAGNNGMHVANLSLGGPSPSATLEQAVNSATSRGVLVVAASGNSGAGSISYPARYANAMAVGATDQNNNRASFSQYGAGLDIVAPGVNVQSTYIGSTYASLNGTSMATPHVAGAAALVKQKNPSWSNVQIRNHLKNTATSLGSPNLYGNGLVNAEAATR when you can.
520
